# Tested on: MS2 coat protein
# Test Description: apparent KD of MS2 coat protein; designed switch direction (-1 OFF switch, 1 ON switch): -1; higher = weaker reporter binding
# Experimental Setup: input ligand: microRNA oligo, concentration not stated
Measurement Kind: apparent KD of MS2 coat protein (nM)
State just the number; it will be interpreted in nM.

Before answering, review these 3 worked examples.
Given the sequence GGUCAGACGGUAGGAUAUCCAUAUCGAGUGACCCUUUUAUAACAUGAGGAUCACCCAUGUCGGUGGGAGAAGGGCCGUACGGCG [salish99_ExNG02_R04_003] (Eterna round: R96, puzzle: Exclusion NG 2) , what is its reported apparent KD of MS2 coat protein?
304

Given the sequence UUGUGAGGUGUAGGAUAUUGUUGUUGUUUUUAGCGAGAAGGACAUGAGGAUCACCCAUGUGUCGUGUUUUUUUUUUUUUUUUUU [simply blue] (Eterna round: R96, puzzle: Exclusion NG 1) , what is its reported apparent KD of MS2 coat protein?
93.5

Given the sequence CGGGCGCGUGUAGGAUAUCGGGCCCGGUGGGCCCGAGAAGGACAUGAGGAUCACCCAUGUGCCCGGGUUGCCCGGGCGCGCCCG [-50, -49 kcal and 14% A] (Eterna round: R96, puzzle: Exclusion NG 1) , what is its reported apparent KD of MS2 coat protein?
7.82

Continuing:
Given the sequence CCGGUUGGCGCAGGAUAUACAUGAGGAUCACCCAUGUUCAUGAGGAUCACUCAUGAGUUUUUGUUGUAGAAGGGUGGCCCGGCC (Eterna round: R96, puzzle: Exclusion NG 2) , what is its reported apparent KD of MS2 coat protein?
605

Given the sequence UACAUGAGGAUCACCCAUGUUUUGUCGUGUAUGGUAUUUAUCUAGGAUAUCAUGUUAUUUAGUUAUGAGAAGGAGAAUAUUAAU [JMF's solution 81] (Eterna round: R96, puzzle: Exclusion NG 3) , what is its reported apparent KD of MS2 coat protein?
31.3

====

# Tested on: MS2 coat protein
# Test Description: apparent KD of MS2 coat protein; designed switch direction (-1 OFF switch, 1 ON switch): 1; higher = weaker reporter binding
# Experimental Setup: input ligand: FMN 200 uM
The following sequences are listed with their measured apparent KD of MS2 coat protein values.
State just the number; it will be interpreted in nM.

Record lookup: for MS2 coat protein, what apparent KD of MS2 coat protein belongs to GUUGAGAAAUAAGGAUAUGCAUGGAAGACACAUGAGGAUCACCCAUGUGGGAGGGAAACCAGGAGGUAGAAGGUAUUGGGAAAC [AK SSNG2-V2-23.1] (Eterna round: R96, puzzle: Same State NG 2) ?
43.8

Record lookup: for MS2 coat protein, what apparent KD of MS2 coat protein belongs to AAUUAAGAUCAAGGAUAUCACGUCGAUUAGACGUGAGAAGGUGAUCAUAACAUGAGGAUCACCCAUGUAUUACAUGAAUUAAUU [SSNG1/2-B2] (Eterna round: R96, puzzle: Same State NG 1) ?
85.7

Record lookup: for MS2 coat protein, what apparent KD of MS2 coat protein belongs to GGUAGGUUACUACCAAUCUACAUGAGGAUCACCCAUGUGUAGGAGGAUAUGGUACCUAUUUGGUACCAGAAGGCCUAAUUAAUU [Fiskers NG3ss - 9] (Eterna round: R96, puzzle: Same State NG 3) ?
117

Record lookup: for MS2 coat protein, what apparent KD of MS2 coat protein belongs to ACAUUUAGCUCGUGCACAUGAGGAUCACCCAUGUUCAGUUCACAGGAUAUCUAGUCAAACGGAUCGGAGAAGGGUGGCAGGAGC [Quceon] (Eterna round: R96, puzzle: Same State NG 3) ?
39.9

Continuing:
Record lookup: for MS2 coat protein, what apparent KD of MS2 coat protein belongs to UUGAAGAAUUAAGGAUAUCGAGUACAUAUGUUUAACAUGAGGAUCACCCAUGUGGGUUGCGGUAUCGAGAAGGUAAAUUACAAG [JL SSNG2 1.43] (Eterna round: R96, puzzle: Same State NG 2) ?
45.3

====

# System: K4 kissing-loop RNA reporter;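 note: bound reporter read as fluorescence of individual clusters on recovered sequencing chips by microscopy, with normalized cluster intensities fitted with a binding model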
# Test Description: apparent KD of K4 kissing-loop reporter; higher = weaker reporter binding
# Experimental Setup: Eterna round: R107; input ligand: arginine 13.2 mM
Measurement Kind: apparent KD of K4 kissing-loop reporter (nM)
State just the number; it will be interpreted in nM.

Record lookup: for K4 kissing-loop RNA reporter, what apparent KD of K4 kissing-loop reporter belongs to AUUUGUUUAUGUGAUACCAGACUAAGCAGUGAUGUUGCUUUUAUUUUUGAAUUUUAAAUAGUCCCUUGGCAGCACUAUGUAUUUA [JR_SSTheophyB_Sub010] ?
93.1

Record lookup: for K4 kissing-loop RNA reporter, what apparent KD of K4 kissing-loop reporter belongs to UGAACCGCCCAGUGAUGUUGGGCCAUAGAUACCAGCCUCUCCGACGGCCCUUGGCAGCUAGGGCCCGGCAGGUAGGAGACUCUGC [Orarzasove] ?
220

Next:
Record lookup: for K4 kissing-loop RNA reporter, what apparent KD of K4 kissing-loop reporter belongs to GCGCGGCUCAGUGAUGUUGAGCCUCGGAGACGAGGACCGGUACGGCCGCCACUCGUCCGCGCAGCUGAGGCAAAAGCCUCGGCAA [Omei KL Tryp A SS B v3] ?
195

====

# System: MS2 coat protein
# Test Description: apparent KD of MS2 coat protein; designed switch direction (-1 OFF switch, 1 ON switch): -1; higher = weaker reporter binding
# Experimental Setup: input ligand: FMN 200 uM
The following sequences are listed with their measured apparent KD of MS2 coat protein values.
State the value, then name its unit.

Before answering, review these 8 worked examples.
Given the sequence GCACGGAGUGUAGGAUAUUAGUGCGAUUAGCACUGAGAAGGACAUGAGGAUCACCCAUGUUCCUCAAUAAUUAGCCUUCCGUGC [Eli exng1 - 038] (Eterna round: R96, puzzle: Exclusion NG 1) , what is its reported apparent KD of MS2 coat protein?
0.0152 µM

Given the sequence GGAGGACGAGCAGGAUAUUUUUACAUGAGGAUCACCCAUGUGUAAUCAGGGUAAUCCUCCGCCGAAAAGAAGGGUUCGGAAGAA [Mat - Exclusion NG 2 - Mod of JL - D83] (Eterna round: R96, puzzle: Exclusion NG 2) , what is its reported apparent KD of MS2 coat protein?
2.75 µM

Given the sequence GGAAAAAUAUAGGAUAUGGGAGGGAGGACCGAACCAGAAGGAUAGACAUGAGGAUCACCCAUGUAAAGAUCCUC [AK-MS2ROC-r4-exclusion6-6] (Eterna round: R97, puzzle: Exclusion 6) , what is its reported apparent KD of MS2 coat protein?
0.377 µM

Given the sequence UUAGUGUAAGGAUAUCCUAUUACGAAGUAGCAACGGUAGAGGGAGAAGGUACAUGAGGAUCACCCAUGUGUCGC [Eternabot (L2) Solution 38] (Eterna round: R97, puzzle: Exclusion 4) , what is its reported apparent KD of MS2 coat protein?
0.0263 µM

Given the sequence UUUAGUUCAGGAUAUGUAGAUUUUAACAUGAGGAUCACCCAUGUAGAUCCUGAUCCUGCUACAGAAGGGAAGAUUU [Mat - Exclusion 5 - Eli Mod - D7] (Eterna round: R97, puzzle: Exclusion 5) , what is its reported apparent KD of MS2 coat protein?
0.0223 µM

Given the sequence GUACUGACAGGAUAUACAUGAGGAUCACCCAUGUGCCUUAGCGCUACAAAAGUAGCGUGUAGAAGGGUCUGUAC [Omei Ex3 Model Bachelor's Dilema v15] (Eterna round: R97, puzzle: Exclusion 3) , what is its reported apparent KD of MS2 coat protein?
0.0368 µM

Given the sequence CAAUUAAUUAAUUAAUAAUACAUGAGGAUCACCCAUGUAGAUCCUACAUACAAGCUUUGUAGCUCGUCUUAUAAUUA [Stov1/3-A3] (Eterna round: R97, puzzle: Sensor, turn-off variant 1) , what is its reported apparent KD of MS2 coat protein?
0.368 µM

Given the sequence CGUGUGUCAGGAUAUUAGUAAUGUAUGGAUACAUAUAUUACUGAGAAGGGACAUGAGGAUCACCCAUGUAUACG [JR_Ex4_Sub059] (Eterna round: R97, puzzle: Exclusion 4) , what is its reported apparent KD of MS2 coat protein?
0.158 µM

Next:
Given the sequence UACAUGAGGAUCACCCAUGUUUUGUCGUGUAUGGUAUUUAUCUAGGAUAUCAUGUUAUUUAGUUAUGAGAAGGAGAAUAUUAAU [JMF's solution 81] (Eterna round: R96, puzzle: Exclusion NG 3) , what is its reported apparent KD of MS2 coat protein?
0.0456 µM

====

# Tested on: MS2 coat protein
# Test Description: apparent KD of MS2 coat protein; designed switch direction (-1 OFF switch, 1 ON switch): 1; higher = weaker reporter binding
# Experimental Setup: input ligand: none
Measurement Kind: apparent KD of MS2 coat protein (nM)
State just the number; it will be interpreted in nM.

Before answering, review these 2 worked examples.
Given the sequence UUUAGAGGCGCAGGAUAUGGUGAGGAUCACCCACUAGAAGGGUGCACAUGAGAAUCGGACAUGAGGAUCACCCAUGUUUGGCGC (Eterna round: R96, puzzle: Same State NG 1) , what is its reported apparent KD of MS2 coat protein?
816

Given the sequence CAGCCACAAAAUACGGCUGAAACAUGAGGAUCACCCAUGUCACAGGAUAUCCAACGGUAUACCGCGGAGAAGGGUGCGAAGAAC [Ceusso] (Eterna round: R96, puzzle: Same State NG 3) , what is its reported apparent KD of MS2 coat protein?
52.4

Next:
Given the sequence GCGAGGAUAUGGAGAGGAUCACCCUCUAGAAGGCGCGAAGGCGAGGAUAUGGAGAGGAUCACCCUCUAGAAGGCGCACUUCUCU [pwkr ssNG3 DX 2xF5 +2xFMN.5] (Eterna round: R96, puzzle: Same State NG 3) , what is its reported apparent KD of MS2 coat protein?
235
